assay: recombinant barcode read abundance after kanamycin selection (control-corrected) (log10(CPM+1)); higher = more efficient recombination; sequences stand for … in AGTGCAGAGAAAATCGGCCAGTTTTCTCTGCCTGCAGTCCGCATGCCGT…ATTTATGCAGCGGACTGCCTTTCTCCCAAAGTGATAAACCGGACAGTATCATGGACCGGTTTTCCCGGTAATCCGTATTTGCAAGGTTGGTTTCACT; site = the 11-nt target
In this section, each of the sequences is paired with its reported recombinant barcode read abundance (log10).
property label: recombinant barcode read abundance (log10)

chain sequence: AGTCTTATCTGGGTTCTAACCTGTTGCCAGA [AGTCTTACTTG_LTGcore_TC_RTGcore_TC] (site AGTCTTACTTG) (LTG core: TC, RTG core: TC)
numeric readout: 0.0509
--
chain sequence: TCGCGACGCTGGGTTCTAACCTGTTGCCGAG [TCGCGACCTCG_LTGcore_GC_RTGcore_CT] (site TCGCGACCTCG) (LTG core: GC, RTG core: CT)
numeric readout: 0.235
--
chain sequence: TCTACCCAATGGGTTCTAACCTGTTGCTGTT [TCTACCCCTCA_LTGcore_AA_RTGcore_AA] (site TCTACCCCTCA) (LTG core: AA, RTG core: AA)
numeric readout: 0.186
--
chain sequence: GGTGCCCCTTGGGTTCTAACCTGTTGCCGAA [GGTGCCCCTCG_LTGcore_CT_RTGcore_TT] (site GGTGCCCCTCG) (LTG core: CT, RTG core: TT)
numeric readout: 0.481
--
chain sequence: TGATACCCTTGGGTTCTAACCTGTTGCGTCC [TGATACCCTAC_LTGcore_CT_RTGcore_GG] (site TGATACCCTAC) (LTG core: CT, RTG core: GG)
numeric readout: 0.629

---

assay: recombinant barcode read abundance after kanamycin selection (control-corrected) (log10(CPM+1)); higher = more efficient recombination; sequences stand for … in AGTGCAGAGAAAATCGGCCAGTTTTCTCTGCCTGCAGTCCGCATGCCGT…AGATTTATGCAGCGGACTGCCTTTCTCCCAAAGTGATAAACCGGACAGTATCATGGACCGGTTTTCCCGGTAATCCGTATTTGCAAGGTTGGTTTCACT; site = the 11-nt target
Values of recombinant barcode read abundance (log10) greater than or equal to 0.3 map to rule met; values below map to rule not met.

chain sequence: AGTCTCTCTTGGGTTCTAACCTGTTGCCT (site AGTCTCTCTAG)
label value: rule met
//
chain sequence: TATGCGCCTTGGGTTCTAACCTGTTGCCT (site CATGTGCCTAG)
label value: rule not met
//
chain sequence: CCACATCCTTGGGTTCTAACCTGTTGCCT (site CCACATCCTAG)
label value: rule not met
//
chain sequence: CGTTCCACTTGGGTTCTAACCTGTTGCCT (site CGTTCAACTAG)
label value: rule not met
//
chain sequence: ACCTGGCCTTGGGTTCTAACCTGTTGCCT (site ACCTGGCCTAG)
label value: rule met
//
chain sequence: ACCTGGCCTTGGGTTCTAACCTGTTGCCT (site ACCTGTCCTAG)
label value: rule not met
//
chain sequence: TAGTTAACTTGGGTTCTAACCTGTTGCCA (site TAGTTTACTTG)
label value: rule not met
//
chain sequence: GCCGATCCTTGGGTTCTAACCTGTTGCCT (site GCCGATCCTAG)
label value: rule not met
//
chain sequence: AACTTTCCTTGGGTTCTAACCTGTTGCAT (site AACTTTCCTAT)
label value: rule not met
